Source of measurements: PubChem BioAssay AID248

# System: L1210 leukemia ip in BDF1 mice, survival T/C
# Protocol Summary: NCI In Vivo Anticancer Drug Screen. Data for tumor model L1210 Leukemia (intraperitoneal) in B6D2F1 (BDF1) mice
# Particulars: endpoint: mean survival time; dose: 100.0 mg/kg/injection; schedule: Q04DX003 (ip); vehicle: saline; higher = longer survival
Inconclusive results and toxic doses are left out.
// reported T/C per item

Can you look up the measured T/C of CC(CN1CCCC1)C(O)(Cc1ccccc1)c1ccccc1 (stereo not given) for me?
92 % of control

Can you look up the measured T/C of CC(C)CCN for me?
98 % of control

Can you look up the measured T/C of CC1C[N-]CC(C)C1.[CH-]=C(C)C.[Cl][Pt+2][Cl] (stereo not given) for me?
111 % of control
